# Measurement protocol: gradient 5% acetonitrile 3 min, to 50% in 2 min, to 85% in 15 min, held 3 min, 100 µL/min
# Assay context: column: Zorbax Extend-C18 2.1 x 50 mm; eluents: water / acetonitrile, 0.1% formic acid
Reported endpoint: RP-LC retention time (s)

Examples with their reported RP-LC retention time follow.
Cc1ccccc1Nc1c(-c2cccc(Cl)c2)nc2ncccn12; 901
Cc1ccc(C)c(N2CCN(C(=O)c3ccc4c(c3)CCN4C(=O)C3CC3)CC2)c1; 1070

1. COc1ccc(NC(=O)C2CCc3nc(N4CCCCC4)ncc3C2)cc1C(F)(F)F (centres undefined)
2. CCNc1cc(N2CCCC(CCC(=O)N3CCCC(CN4CCCC4)C3)C2)ncn1 (centres undefined)
Form field 'greater RP-LC retention time' accepts 1 or 2 ; which applies? I would appreciate it if you answered with the label of your choice.
1
(1: 894 s, 2: 571 s)

====

# Measurement protocol: gradient 5% acetonitrile 3 min, to 50% in 2 min, to 85% in 15 min, held 3 min, 100 µL/min
# Assay context: column: Zorbax Extend-C18 2.1 x 50 mm; eluents: water / acetonitrile, 0.1% formic acid
Reported endpoint: RP-LC retention time (s)

1. O=c1c2cc(-c3ccc(F)cc3)nn2cnn1Cc1nc(-c2ccc3c(c2)OCO3)no1
2. Cc1ccc(CNC(=O)c2sc(-c3cn(C)c4ncccc34)nc2C)cc1
Please indicate which item has the smaller measured RP-LC retention time: 1 versus 2 I would appreciate it if you answered with the label of your choice.
2

a. Cn1cccc1C(=O)NC1CCCN(c2cc(N3CCCC3)ncn2)C1 (centres undefined)
b. Cc1cc(C)c(S(=O)(=O)N2CCc3c(c(-c4nnc(-c5ccccc5)o4)nn3C)C2)cc1C
Form field 'greater RP-LC retention time' accepts a or b ; which applies? I would appreciate it if you answered with the label of your choice.
b

====

# Measurement protocol: gradient 5% acetonitrile 3 min, to 50% in 2 min, to 85% in 15 min, held 3 min, 100 µL/min
# Assay context: column: Zorbax Extend-C18 2.1 x 50 mm; eluents: water / acetonitrile, 0.1% formic acid
Reported endpoint: RP-LC retention time (s)

Examples with their reported RP-LC retention time follow.
O=C(CCC1CCCN(S(=O)(=O)c2ccccc2F)C1)NCCc1ccccc1 (centres undefined); 952
COC(=O)c1ccc(NC(=O)Cn2c(=O)c3cc(C)nn3c3ncccc32)cc1; 700
C=CCNC(=O)C1COc2ccccc2O1 (centres undefined); 630
CCC1CN2C=NC(N3CCN(C(=O)c4nn(CC)cc4Cl)CC3)=CC2=N1 (centres undefined); 602

a. Cn1cc(-c2nc(C(=O)NCc3ccccc3Cl)cs2)c2cccnc21
b. COC(=O)c1cnc2nc(C)ccc2c1Nc1cc(OC)c(OC)c(OC)c1
Form field 'greater RP-LC retention time' accepts a or b ; which applies? I would appreciate it if you answered with the label of your choice.
a
(a: 989 s, b: 643 s)

a. COc1ccc(S(=O)(=O)NCc2cccnc2-c2ccc(F)cc2)cc1
b. CCOc1ccc(-c2csc(NC(=O)CS(=O)(=O)c3ccc(Cl)cc3)n2)cc1
Form field 'greater RP-LC retention time' accepts a or b ; which applies? I would appreciate it if you answered with the label of your choice.
b
(b: 1070 s, a: 714 s)

a. Cc1nn(-c2cc(N(C)C)ncn2)c(C)c1CCC(=O)N1CCC(Cc2ccccc2)CC1
b. COc1ccc(CN(Cc2cc(=O)n3cccc(C)c3n2)CC(C)C)cc1OC
Please indicate which item has the smaller measured RP-LC retention time: a versus b I would appreciate it if you answered with the label of your choice.
b

A. CCCN1CCN(c2cc(C(=O)O)c3cc(NC(=O)c4ccc(F)cc4)ccc3n2)CC1
B. CCCS(=O)(=O)N1CCC(Cc2nc(-c3ccncc3)n[nH]2)C1 (centres undefined)
Please indicate which item has the smaller measured RP-LC retention time: A versus B I would appreciate it if you answered with the label of your choice.
B

====

# Measurement protocol: gradient 5% acetonitrile 3 min, to 50% in 2 min, to 85% in 15 min, held 3 min, 100 µL/min
# Assay context: column: Zorbax Extend-C18 2.1 x 50 mm; eluents: water / acetonitrile, 0.1% formic acid
Reported endpoint: RP-LC retention time (s)

Examples with their reported RP-LC retention time follow.
O=C(C1CC(=O)N(c2n[nH]c3cccc(F)c23)C1)N1CCN(c2ccccc2)CC1 (centres undefined); 718
CCC(C)NC(=O)c1cn(-c2cc(-c3nc(C(C)C)no3)ccn2)cn1 (centres undefined); 907
O=C(c1ccccc1F)N1CCN(c2nc(-c3ccc(Cl)cc3)no2)CC1; 1040
O=C(CCc1conc1-c1ccc(F)cc1)NCc1ccc(F)cc1; 886
COc1ccc(NC(=O)c2cc(C(C)C)n(C3CCS(=O)(=O)C3)n2)cc1Cl (centres undefined); 931

A. CCC(C(=O)N1CCN(C(=O)c2ccco2)CC1)n1c2ccccc2c2cnn(C)c(=O)c21 (centres undefined)
B. CCc1nc2cc(-c3noc(-c4ccc(OC)nc4)n3)ccc2o1
Please indicate which item has the smaller measured RP-LC retention time: A versus B I would appreciate it if you answered with the label of your choice.
A

P. CC1(C)C(=O)N(CC(=O)N2CCN(c3ccccn3)CC2)c2ccccc21
Q. Cc1cc(C)nc(N2CCN(c3ccc(Cl)cc3)CC2)n1
Please indicate which item has the smaller measured RP-LC retention time: P versus Q I would appreciate it if you answered with the label of your choice.
P

1. CCc1ccc(Nc2nc(C(=O)NCCOC)nc3ccccc23)cc1
2. CCN1C(=O)c2ccccc2Oc2ccc(C(=O)N3CCN(c4cc(Cl)ccc4C)CC3)cc21
Please indicate which item has the smaller measured RP-LC retention time: 1 versus 2 I would appreciate it if you answered with the label of your choice.
1

P. CCOC(=O)c1c(C)[nH]c(C)c1S(=O)(=O)NCC(=O)N1CCN(c2ccccn2)CC1
Q. COc1ccc(C(C)NC(=O)c2cc(-c3ccccc3)cn2C)cc1OC (centres undefined)
Please indicate which item has the smaller measured RP-LC retention time: P versus Q I would appreciate it if you answered with the label of your choice.
P
(P: 599 s, Q: 963 s)

====

# Measurement protocol: gradient 5% acetonitrile 3 min, to 50% in 2 min, to 85% in 15 min, held 3 min, 100 µL/min
# Assay context: column: Zorbax Extend-C18 2.1 x 50 mm; eluents: water / acetonitrile, 0.1% formic acid
Reported endpoint: RP-LC retention time (s)

CC(C)(C)n1nnnc1C1CC2(CCOCC2)C(=O)N1Cc1ccccc1 (stereo not given); 769
COc1ccc(-c2coc3cc(OCC(=O)O)ccc3c2=O)cc1OC; 703
Cc1cc(N(C)C)nc(NCCNC(=O)C(C)(C)Oc2ccc(Cl)cc2)n1; 598
Cc1cccc(NC(=O)C2CCCCN2S(=O)(=O)c2cccs2)n1 (stereo not given); 807
Cc1csc(-c2cc(S(=O)(=O)NC(C)(C)C)c(C)n2C)n1; 914
CCn1c(=O)c(N2CCCC(C(=O)N3CCCCCC3)C2)nc2cccnc21 (stereo not given); 1000
Cn1cc(-c2cc3n(n2)CCC(=O)N3CCCC(=O)NCc2ccc3c(c2)OCO3)c2ccccc21; 795
CCn1ccc(C(=O)N2CCC3(CC2)NCc2ccccc2-n2ccnc23)n1; 579
O=C(CSc1nc(N2CCCCC2)nc2ccccc12)Nc1ccc(Br)cc1; 810
CS(=O)(=O)N1CCc2ccc(C(=O)N3CCCCC3)cc21; 717

====

# Measurement protocol: gradient 5% acetonitrile 3 min, to 50% in 2 min, to 85% in 15 min, held 3 min, 100 µL/min
# Assay context: column: Zorbax Extend-C18 2.1 x 50 mm; eluents: water / acetonitrile, 0.1% formic acid
Reported endpoint: RP-LC retention time (s)

O=c1c2ccc(Cl)cc2oc2cc(O)cc(O)c12; 979

P. CCn1cc(-c2nc(C)c(C(=O)N3CCc4ccccc4C3)s2)c2cccnc21
Q. Cc1ccc2c(Nc3ccc(S(N)(=O)=O)cc3)c(C(=O)N3CCCCC3C)cnc2n1 (stereo not given)
Please indicate which item has the smaller measured RP-LC retention time: P versus Q I would appreciate it if you answered with the label of your choice.
Q

P. COc1cc2c(CCNC(C)=O)c[nH]c2cc1Cl
Q. CCCN1C(=O)c2cc(S(=O)(=O)Nc3ccc(C)cc3)ccc2Oc2cccnc21
Form field 'greater RP-LC retention time' accepts P or Q ; which applies? I would appreciate it if you answered with the label of your choice.
Q
(Q: 1100 s, P: 754 s)

1. CCOc1cccc(-c2noc(-c3nn(-c4ccc(C)c(C)c4)ccc3=O)n2)c1
2. COc1ccccc1N1CCN(C(=O)C2CCN(C(=O)C3Sc4ccccc4NC3=O)CC2)CC1 (stereo not given)
Form field 'greater RP-LC retention time' accepts 1 or 2 ; which applies? I would appreciate it if you answered with the label of your choice.
1
(1: 1060 s, 2: 717 s)

A. COc1cc(-c2noc(Cc3nnc(-c4ccc(F)cc4)o3)n2)cc(OC)c1OC
B. Cn1cc(CN2CCC(C(=O)N3CCCC3)CC2)c2cc(Cl)ccc21
Form field 'greater RP-LC retention time' accepts A or B ; which applies? I would appreciate it if you answered with the label of your choice.
A
